Tested on: Kynurenine Aminotransferase (KAT)
Experiment: Determination of KAT activity inhibition in rat brain homogenate
Format: biochemical
Conditions: 100 μM, 2 μM [3H]KYN, 2 h at 37° C., pH 8.0
Procedure: A) Determination of KAT activity inhibition in rat brain homogenate KAT was measured as described in detail by Okuno et al. (Measurement of rat brain kynurenine amino-transferase at physiological kynurenine concentrations, J. Neurochem., 57, 533-540, 1991). […] Newly synthesized [^3 H]KYNA was separated from [^3 H]KYN on a Dowex 50W cation-exchange column and quantitated by liquid scintillation spectrometry. […]
parameter: KYNA production % of inhibition (%)

{"columns": ["compound", "KYNA production % of inhibition [%]"],
 "data": [
  ["Nc1ccc(Cl)cc1C(=O)C[C@H](N)C(=O)O", 61],
  ["CC(C)c1ccc(N)c(C(=O)CC(N)C(=O)O)c1 (stereo not drawn)", 45],
  ["Nc1ccc(Cl)cc1C(=O)CC(N)C(=O)O (stereo not drawn)", 45]
]}
